Exercise: state measured Efficacy for each of the molecules provided.
Target: Human Farnesoid X Receptor (NR1H4, FXR) (Homo sapiens, UniProt Q96RI1)
Sequence (Q96RI1 whole entry): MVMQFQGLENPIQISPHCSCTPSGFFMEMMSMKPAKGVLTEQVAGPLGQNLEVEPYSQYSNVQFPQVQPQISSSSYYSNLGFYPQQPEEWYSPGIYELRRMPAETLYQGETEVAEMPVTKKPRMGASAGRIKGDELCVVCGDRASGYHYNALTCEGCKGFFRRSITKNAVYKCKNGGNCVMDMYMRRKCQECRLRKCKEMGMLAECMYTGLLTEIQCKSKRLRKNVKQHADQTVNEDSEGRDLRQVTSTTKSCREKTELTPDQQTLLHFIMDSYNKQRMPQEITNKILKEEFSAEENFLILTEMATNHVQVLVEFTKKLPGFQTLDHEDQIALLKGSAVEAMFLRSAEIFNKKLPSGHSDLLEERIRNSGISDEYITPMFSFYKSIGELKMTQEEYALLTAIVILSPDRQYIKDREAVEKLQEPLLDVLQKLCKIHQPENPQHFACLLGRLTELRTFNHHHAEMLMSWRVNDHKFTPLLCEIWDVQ
Assay: FXR reporter assay, EC50 and efficacy (Indigo Biosciences luciferase reporter cells)
Assay type: cell-based
Conditions: maximum point on the dose response curve; GW4064 designated as 100%
Report only the number, with the unit % understood.

// query Which measured Efficacy value corresponds to CC[C@@H]1[C@@H]2[C@@H](F)[C@H](O)CC[C@]2(C)C2CC[C@@]3(C)C(CCC3[C@H](C)CCNC(=O)NS(=O)(=O)c3ccc(C)cc3)C2[C@@H]1O (some centres unmarked) [Compound 1] ?
// result 193

// query Which measured Efficacy value corresponds to CC[C@@H]1[C@@H]2[C@@H](F)[C@H](O)CC[C@]2(C)C2CC[C@@]3(C)C(CCC3[C@H](C)CCNC(=O)NS(=O)(=O)c3ccccc3C(F)(F)F)C2[C@@H]1O (some centres unmarked) [Compound 11] ?
// result 104

// query Which measured Efficacy value corresponds to CC[C@H]1[C@@H](O)C2C3CCC([C@H](C)CCNC(=O)NS(=O)(=O)c4ccccc4)[C@@]3(C)CCC2[C@@]2(C)CC[C@@H](O)C[C@@H]12 (some centres unmarked) [Comparative compound A, reference compound] ?
// result 147

// query Which measured Efficacy value corresponds to CC[C@@H]1[C@@H]2[C@@H](F)[C@H](O)CC[C@]2(C)C2CC[C@@]3(C)C(CCC3[C@H](C)CCNC(=O)NS(=O)(=O)c3cccc(F)c3)C2[C@@H]1O (some centres unmarked) [Compound 7] ?
// result 131

// query Which measured Efficacy value corresponds to CC[C@H]1[C@@H](O)[C@@H]2[C@H](CC[C@]3(C)[C@@H]([C@H](C)CCC(=O)NS(=O)(=O)C4CC4)CC[C@@H]23)[C@@]2(C)CC[C@@H](O)[C@H](F)[C@@H]12 [Comparative compound B, reference compound] ?
// result 132

// query Which measured Efficacy value corresponds to CC[C@@H]1[C@@H]2[C@@H](F)[C@H](O)CC[C@]2(C)C2CC[C@@]3(C)C(CCC3[C@H](C)CCNC(=O)NS(=O)(=O)c3ccc(C(F)(F)F)cc3)C2[C@@H]1O (some centres unmarked) [Compound 9] ?
// result 158

// query Which measured Efficacy value corresponds to CC[C@@H]1[C@@H]2[C@@H](F)[C@H](O)CC[C@]2(C)C2CC[C@@]3(C)C(CCC3[C@H](C)CCNC(=O)NS(=O)(=O)c3ccc(OC)cc3)C2[C@@H]1O (some centres unmarked) [Compound 13] ?
// result 250

// query Which measured Efficacy value corresponds to CC[C@@H]1[C@@H]2[C@@H](F)[C@H](O)CC[C@]2(C)C2CC[C@@]3(C)C(CCC3[C@H](C)CCNC(=O)NS(=O)(=O)c3ccccc3)C2[C@@H]1O (some centres unmarked) [Compound 2] ?
// result 195

// query Which measured Efficacy value corresponds to CC[C@@H]1[C@@H]2[C@@H](F)[C@H](O)CC[C@]2(C)C2CC[C@@]3(C)C(CCC3[C@H](C)CCNC(=O)NS(=O)(=O)c3ccc(C(C)(C)C)cc3)C2[C@@H]1O (some centres unmarked) [Compound 3] ?
// result 151

// query Which measured Efficacy value corresponds to CC[C@H]1[C@@H](O)[C@@H]2[C@H](CC[C@]3(C)[C@@H]([C@H](C)CCC(=O)NS(=O)(=O)c4cccc(C(F)(F)F)c4)CC[C@@H]23)[C@@]2(C)CC[C@@H](O)[C@H](F)[C@@H]12 [Compound 19] ?
// result 136

// query Which measured Efficacy value corresponds to CC[C@H]1[C@@H](O)[C@@H]2[C@H](CC[C@]3(C)[C@@H]([C@H](C)CCC(=O)NS(=O)(=O)c4ccccc4F)CC[C@@H]23)[C@@]2(C)CC[C@@H](O)[C@H](F)[C@@H]12 [Compound 17] ?
// result 121

// query Which measured Efficacy value corresponds to CC[C@@H]1[C@@H]2[C@@H](F)[C@H](O)CC[C@]2(C)C2CC[C@@]3(C)C(CCC3[C@H](C)CCNC(=O)NS(=O)(=O)c3ccc(F)cc3)C2[C@@H]1O (some centres unmarked) [Compound 6] ?
// result 187

// query Which measured Efficacy value corresponds to CC[C@H]1[C@@H](O)[C@@H]2[C@H](CC[C@]3(C)[C@@H]([C@H](C)CCC(=O)NS(C)(=O)=O)CC[C@@H]23)[C@@]2(C)CC[C@@H](O)[C@H](F)[C@@H]12 [Comparative compound C, reference compound] ?
// result 130

// query Which measured Efficacy value corresponds to CC[C@H]1[C@@H](O)[C@@H]2[C@H](CC[C@]3(C)[C@@H]([C@H](C)CCC(=O)NS(=O)(=O)c4ccc(F)cc4)CC[C@@H]23)[C@@]2(C)CC[C@@H](O)[C@H](F)[C@@H]12 [Compound 15] ?
// result 98

// query Which measured Efficacy value corresponds to CC[C@@H]1[C@@H]2[C@@H](F)[C@H](O)CC[C@]2(C)C2CC[C@@]3(C)C(CCC3[C@H](C)CCNC(=O)NS(=O)(=O)c3ccccc3C)C2[C@@H]1O (some centres unmarked) [Compound 5] ?
// result 166

// query Which measured Efficacy value corresponds to CC[C@@H]1[C@@H]2[C@@H](F)[C@H](O)CC[C@]2(C)C2CC[C@@]3(C)C(CCC3[C@H](C)CCNC(=O)NS(=O)(=O)c3cccc(C)c3)C2[C@@H]1O (some centres unmarked) [Compound 4] ?
// result 148

// query Which measured Efficacy value corresponds to CC[C@@H]1[C@@H]2[C@@H](F)[C@H](O)CC[C@]2(C)C2CC[C@@]3(C)C(CCC3[C@H](C)CCNC(=O)NS(=O)(=O)c3ccccc3F)C2[C@@H]1O (some centres unmarked) [Compound 8] ?
// result 159

// query Which measured Efficacy value corresponds to CC[C@H]1[C@@H](O)[C@@H]2[C@H](CC[C@]3(C)[C@@H]([C@H](C)CCC(=O)NS(=O)(=O)c4cccc(F)c4)CC[C@@H]23)[C@@]2(C)CC[C@@H](O)[C@H](F)[C@@H]12 [Compound 16] ?
// result 143

// query Which measured Efficacy value corresponds to CC[C@H]1[C@@H](O)[C@@H]2[C@H](CC[C@]3(C)[C@@H]([C@H](C)CCC(=O)NS(=O)(=O)c4ccc(C(F)(F)F)cc4)CC[C@@H]23)[C@@]2(C)CC[C@@H](O)[C@H](F)[C@@H]12 [Compound 18] ?
// result 148

// query Which measured Efficacy value corresponds to CC[C@@H]1[C@@H]2[C@@H](F)[C@H](O)CC[C@]2(C)C2CC[C@@]3(C)C(CCC3[C@H](C)CCNC(=O)NS(=O)(=O)c3ccc(OC(F)(F)F)cc3)C2[C@@H]1O (some centres unmarked) [Compound 12] ?
// result 176
